ASSAY SYSTEM: recombinant cynomolgus monkey CD3ε/δ heterodimer (cynomolgus monkey) (UniProt Q95LI5)
Sequence (Q95LI5 22-117, stated change not applied, chain 1 of 2): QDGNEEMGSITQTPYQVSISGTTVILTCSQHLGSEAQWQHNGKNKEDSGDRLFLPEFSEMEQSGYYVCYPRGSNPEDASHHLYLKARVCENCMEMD
Sequence (Q95LI8 22-105, stated change not applied, chain 2 of 2, further chain): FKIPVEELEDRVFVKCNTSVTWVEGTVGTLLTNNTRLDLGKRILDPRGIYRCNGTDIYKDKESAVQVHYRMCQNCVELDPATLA
ASSAY DETAILS: ELISA, coated CD3ε/δ
MEASURED ATTRIBUTE: Absorbance (450 nm)

BINDER	OBSERVED
C14 (antibody, human IgG1, lambda, L234A L235A, V domains shown) VH: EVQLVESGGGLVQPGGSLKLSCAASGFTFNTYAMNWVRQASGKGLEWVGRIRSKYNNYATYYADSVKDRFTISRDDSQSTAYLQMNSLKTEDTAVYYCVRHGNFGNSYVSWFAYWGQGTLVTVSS VL: QAVVTQEPSLTVSPGGTVTLTCRSSTGAVTTSNYANWVQQKPGQAPRGLIYGTNKRAPWTPARFSGSLLGDKAALTLSGAQPEDEAEYYCALWYSNLWVFGGGTKLTVLG	0.095
F06 (antibody, human IgG1, lambda, L234A L235A, V domains shown) VH: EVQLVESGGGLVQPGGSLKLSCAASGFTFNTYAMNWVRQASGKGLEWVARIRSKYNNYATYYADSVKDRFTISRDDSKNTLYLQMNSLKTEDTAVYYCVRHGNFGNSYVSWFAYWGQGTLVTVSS VL: QAVVTQEPSLTVSPGGTVTLTCRSSTGAVTTSNYANWFQQKPGQAPRGLIYGTNKRAPWTPARFSGSLLGDKAALTLSGAQPEDEAEYYCALWYSNLWVFGGGTKLTVLG	0.096
E06 (antibody, human IgG1, lambda, L234A L235A, V domains shown) VH: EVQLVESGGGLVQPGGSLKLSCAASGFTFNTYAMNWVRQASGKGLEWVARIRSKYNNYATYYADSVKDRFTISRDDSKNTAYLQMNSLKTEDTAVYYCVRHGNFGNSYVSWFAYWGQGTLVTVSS VL: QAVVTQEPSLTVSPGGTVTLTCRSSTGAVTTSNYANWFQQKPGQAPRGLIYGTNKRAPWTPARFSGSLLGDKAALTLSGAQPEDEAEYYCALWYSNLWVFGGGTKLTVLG	0.086
G12 (antibody, human IgG1, lambda, L234A L235A, V domains shown) VH: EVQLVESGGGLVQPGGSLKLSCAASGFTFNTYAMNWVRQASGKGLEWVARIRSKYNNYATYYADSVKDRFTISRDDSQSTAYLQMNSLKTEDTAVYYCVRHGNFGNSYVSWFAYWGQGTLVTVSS VL: QAVVTQEPSLTVSPGGTVTLTCRSSTGAVTTSNYANWVQQKPGQAPRTLIGGTNKRAPWTPARFSGSLLGDKAALTLSGAQPEDEAEYYCALWYSNLWVFGGGTKLTVLG	0.065
F13 (antibody, human IgG1, lambda, L234A L235A, V domains shown) VH: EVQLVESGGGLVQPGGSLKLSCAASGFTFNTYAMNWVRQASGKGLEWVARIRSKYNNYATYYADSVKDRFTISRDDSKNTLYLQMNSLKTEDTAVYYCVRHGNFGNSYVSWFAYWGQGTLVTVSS VL: QAVVTQEPSLTVSPGGTVTLTCRSSTGAVTTSNYANWVQQKPGQAPRGLIYGTNKRAPWTPARFSGSLLGGKAALTLSGAQPEDEAEYYCALWYSNLWVFGGGTKLTVLG	0.151
D02 (antibody, human IgG1, lambda, L234A L235A, V domains shown) VH: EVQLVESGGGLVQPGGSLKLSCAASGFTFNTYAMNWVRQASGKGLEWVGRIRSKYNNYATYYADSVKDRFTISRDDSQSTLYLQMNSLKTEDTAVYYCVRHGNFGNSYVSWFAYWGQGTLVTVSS VL: QAVVTQEPSLTVSPGGTVTLTCRSSTGAVTTSNYANWFQQKPGQAPRTLIYGTNKRAPWTPARFSGSLLGDKAALTLSGAQPEDEAEYYCALWYSNLWVFGGGTKLTVLG	0.073
B08 (antibody, human IgG1, lambda, L234A L235A, V domains shown) VH: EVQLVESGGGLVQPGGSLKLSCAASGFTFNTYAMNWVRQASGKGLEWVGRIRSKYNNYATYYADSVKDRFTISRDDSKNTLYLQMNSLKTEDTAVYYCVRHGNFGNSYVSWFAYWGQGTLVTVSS VL: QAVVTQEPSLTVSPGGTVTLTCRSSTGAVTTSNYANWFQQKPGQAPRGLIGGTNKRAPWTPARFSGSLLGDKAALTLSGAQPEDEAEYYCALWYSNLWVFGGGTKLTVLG	2.19
B05 (antibody, human IgG1, lambda, L234A L235A, V domains shown) VH: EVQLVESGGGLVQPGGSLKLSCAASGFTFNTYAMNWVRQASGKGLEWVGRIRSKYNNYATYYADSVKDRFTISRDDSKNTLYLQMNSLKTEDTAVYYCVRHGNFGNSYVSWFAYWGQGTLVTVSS VL: QAVVTQEPSLTVSPGGTVTLTCRSSTGAVTTSNYANWFQQKPGQAPRGLIYGTNKRAPWTPARFSGSLLGGKAALTLSGAQPEDEAEYYCALWYSNLWVFGGGTKLTVLG	0.1
F02 (antibody, human IgG1, lambda, L234A L235A, V domains shown) VH: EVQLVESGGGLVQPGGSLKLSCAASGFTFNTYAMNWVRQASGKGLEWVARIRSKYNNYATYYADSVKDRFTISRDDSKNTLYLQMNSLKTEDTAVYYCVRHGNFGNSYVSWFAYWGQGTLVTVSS VL: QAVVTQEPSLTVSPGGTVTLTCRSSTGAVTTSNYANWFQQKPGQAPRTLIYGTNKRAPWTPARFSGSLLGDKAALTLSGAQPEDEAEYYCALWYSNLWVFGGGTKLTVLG	0.076
F12 (antibody, human IgG1, lambda, L234A L235A, V domains shown) VH: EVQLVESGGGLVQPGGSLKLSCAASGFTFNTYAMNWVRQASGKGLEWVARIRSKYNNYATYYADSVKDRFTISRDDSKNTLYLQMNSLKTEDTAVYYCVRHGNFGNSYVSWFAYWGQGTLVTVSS VL: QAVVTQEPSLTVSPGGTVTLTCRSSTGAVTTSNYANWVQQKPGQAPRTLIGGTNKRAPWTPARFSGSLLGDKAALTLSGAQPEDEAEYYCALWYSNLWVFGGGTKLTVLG	0.077
